# Tested on: IGROV1 ovarian
# ASSAY PROTOCOL: NCI-60 one-dose screen, 48 h (100 = growth as untreated, 0 = no growth, -100 = all killed)
# CONDITION LABEL: 10 µM
This is part of a sample that, as a whole, favours compounds with a hit. Of some 83,000 tested, about 20% had one in any assay.
Quick rule: growth of at least 10% means Condition met, below that means Condition not met.

O=c1oc2ccc(-c3ccc(F)cc3F)cc2c(=O)n1-c1ccc(F)cc1 | Condition met

Textbook exercise: given the entry "CC(=O)Nc1ccc(-n2cnc3cc(-c4ccc(NS(C)(=O)=O)cc4)ccc32)cc1" , state whether its growth is greater than or equal to 10%. Condition met

This collection of values is drawn from PubChem BioAssay (NCI).
